Values from patent US8598132B2

Biological target: JAK2 (Homo sapiens)
Sequence (O60674 whole entry, species assumed): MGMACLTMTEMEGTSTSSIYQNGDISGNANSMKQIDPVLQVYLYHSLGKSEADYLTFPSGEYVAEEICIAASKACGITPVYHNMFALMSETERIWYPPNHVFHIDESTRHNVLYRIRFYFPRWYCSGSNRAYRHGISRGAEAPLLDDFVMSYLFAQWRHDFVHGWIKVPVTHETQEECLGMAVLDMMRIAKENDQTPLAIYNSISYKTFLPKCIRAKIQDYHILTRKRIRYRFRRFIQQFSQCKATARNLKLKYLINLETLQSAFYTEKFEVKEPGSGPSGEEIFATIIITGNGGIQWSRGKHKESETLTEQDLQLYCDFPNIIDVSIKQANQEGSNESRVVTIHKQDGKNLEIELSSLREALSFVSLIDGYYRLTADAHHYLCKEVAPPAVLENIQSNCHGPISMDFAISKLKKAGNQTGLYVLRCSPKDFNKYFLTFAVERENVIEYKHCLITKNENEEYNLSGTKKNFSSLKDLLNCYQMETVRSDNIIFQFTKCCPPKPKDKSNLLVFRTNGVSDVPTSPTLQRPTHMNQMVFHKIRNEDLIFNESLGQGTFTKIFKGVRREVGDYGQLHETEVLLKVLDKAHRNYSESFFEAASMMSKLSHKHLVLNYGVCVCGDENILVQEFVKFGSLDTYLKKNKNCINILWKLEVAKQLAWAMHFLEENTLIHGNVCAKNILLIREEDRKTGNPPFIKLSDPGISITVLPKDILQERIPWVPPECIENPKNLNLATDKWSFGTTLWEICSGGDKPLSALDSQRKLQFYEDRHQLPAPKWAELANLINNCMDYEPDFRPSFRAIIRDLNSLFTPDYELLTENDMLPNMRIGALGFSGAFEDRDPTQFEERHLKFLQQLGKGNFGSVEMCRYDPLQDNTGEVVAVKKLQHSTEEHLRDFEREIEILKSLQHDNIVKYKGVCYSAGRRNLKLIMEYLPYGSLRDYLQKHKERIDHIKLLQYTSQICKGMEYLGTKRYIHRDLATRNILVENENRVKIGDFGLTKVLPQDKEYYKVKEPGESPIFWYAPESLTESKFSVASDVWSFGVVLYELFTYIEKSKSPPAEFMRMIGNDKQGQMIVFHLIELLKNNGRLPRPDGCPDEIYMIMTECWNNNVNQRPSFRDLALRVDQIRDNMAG
Test: LabChip (Caliper) kinase assay, JAK2
Type: biochemical
Settings: JAK2; compound at 100 nM; read-out: remaining kinase activity (in %) / percentage of inhibition
Method: The analysis of kinase activity described here was performed using LabChip (Caliper Life Sciences), specifically the Caliper LC3000 and the EZ Reader II instruments. The kinase assay used measures the conversion of a fluorescent peptide (substrate) to a phosphorylated product. The reaction mixture, in a microplate well, is introduced by a capillary in a chip where the non-phosphorylated substrate and the phosphorylated product are separated by fluorescence induced by laser. […]

| Structure string | Target under test | inhibition at 0.1 µM (%) |
| --- | --- | --- |
| C[C@@H]1O[C@@H](n2c3ccccc3c3c4c(c5c6ccccc6[nH]c5c32)C(=O)NC4=O)C[C@H](O)[C@H]1O | JAK2 (Homo sapiens) | 74 |
| C[C@H]1O[C@@H](n2c3ccccc3c3c4c(c5c6ccccc6[nH]c5c32)C(=O)NC4=O)C[C@@H](O)[C@@H]1O | JAK2 (Homo sapiens) | 88 |
| C[C@@H]1O[C@@H](n2c3ccccc3c3c4c(c5c6ccccc6[nH]c5c32)C(=O)NC4=O)[C@H](O)[C@H](O)[C@H]1O | JAK2 (Homo sapiens) | 33 |

---

Target: FLT3 (Homo sapiens)
Construct: purchased Upstate
Sequence (P36888 27-993, species assumed): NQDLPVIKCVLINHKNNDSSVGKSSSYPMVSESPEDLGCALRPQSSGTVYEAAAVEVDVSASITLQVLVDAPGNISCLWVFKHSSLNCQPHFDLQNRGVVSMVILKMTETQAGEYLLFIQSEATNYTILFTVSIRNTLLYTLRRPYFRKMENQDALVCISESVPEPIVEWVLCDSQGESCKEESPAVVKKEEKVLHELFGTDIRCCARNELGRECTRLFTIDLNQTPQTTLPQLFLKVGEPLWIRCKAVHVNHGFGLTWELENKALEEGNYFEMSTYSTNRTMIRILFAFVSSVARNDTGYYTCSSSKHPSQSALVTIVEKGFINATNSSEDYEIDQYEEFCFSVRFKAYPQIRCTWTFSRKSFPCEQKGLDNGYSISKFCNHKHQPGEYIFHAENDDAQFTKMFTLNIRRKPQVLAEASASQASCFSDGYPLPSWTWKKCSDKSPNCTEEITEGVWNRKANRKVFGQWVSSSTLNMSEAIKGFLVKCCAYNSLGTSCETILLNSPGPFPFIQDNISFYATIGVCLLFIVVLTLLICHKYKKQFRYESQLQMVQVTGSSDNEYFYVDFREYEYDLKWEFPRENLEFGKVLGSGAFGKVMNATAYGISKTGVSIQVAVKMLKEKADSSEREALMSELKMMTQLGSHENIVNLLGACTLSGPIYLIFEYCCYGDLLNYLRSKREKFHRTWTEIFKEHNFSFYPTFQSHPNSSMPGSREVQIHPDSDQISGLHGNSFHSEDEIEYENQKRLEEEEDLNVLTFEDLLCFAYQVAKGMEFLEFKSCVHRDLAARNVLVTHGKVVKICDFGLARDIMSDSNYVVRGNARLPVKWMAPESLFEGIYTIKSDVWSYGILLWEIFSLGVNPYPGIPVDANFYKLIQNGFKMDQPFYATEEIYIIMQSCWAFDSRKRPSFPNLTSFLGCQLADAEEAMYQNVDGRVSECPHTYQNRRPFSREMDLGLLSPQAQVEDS
Assay: LabChip (Caliper) kinase assay, FLT3
Assay type: biochemical
Details: FLT3; compound at 10 nM; read-out: remaining kinase activity (in %) / percentage of inhibition
Protocol: The analysis of kinase activity described here was performed using LabChip (Caliper Life Sciences), specifically the Caliper LC3000 and the EZ Reader II instruments. The kinase assay used measures the conversion of a fluorescent peptide (substrate) to a phosphorylated product. The reaction mixture, in a microplate well, is introduced by a capillary in a chip where the non-phosphorylated substrate and the phosphorylated product are separated by fluorescence induced by laser. […]
Reported property: inhibition at 0.01 µM (%)

| Molecule | Reported |
| --- | --- |
| C[C@@H]1O[C@@H](n2c3ccccc3c3c4c(c5c6ccccc6[nH]c5c32)C(=O)NC4=O)C[C@H](O)[C@H]1O | 20 |
| C[C@@H]1O[C@@H](n2c3ccccc3c3c4c(c5c6ccccc6[nH]c5c32)C(=O)NC4=O)[C@H](O)[C@H](O)[C@H]1O | -10 |
| C[C@@H]1O[C@@H](n2c3ccccc3c3c4c(c5c6ccccc6[nH]c5c32)CNC4=O)C[C@@H](O)[C@H]1O [formula (XIV), N^13-1′-β-L-digitoxosyl-k252c] | 20 |
| C[C@@H]1O[C@@H](n2c3ccccc3c3c4c(c5c6ccccc6[nH]c5c32)CNC4=O)C[C@H](O)[C@H]1O [formula (XIII), N^13-1′-β-L-olivosyl-k252c] | 34 |
| C[C@H]1O[C@@H](n2c3ccccc3c3c4c(c5c6ccccc6[nH]c5c32)C(=O)NC4=O)C[C@@H](O)[C@@H]1O | 51 |
| C[C@H]1O[C@@H](n2c3ccccc3c3c4c(c5c6ccccc6[nH]c5c32)CNC4=O)C[C@@H](O)[C@@H]1O [formula (XV), N^13-1′-β-D-olivosyl-k252c] | 76 |
| C[C@@H]1O[C@@H](n2c3ccccc3c3c4c(c5c6ccccc6[nH]c5c32)C(=O)NC4=O)C[C@@H](O)[C@H]1O | 63 |
| C[C@@H]1O[C@@H](n2c3ccccc3c3c4c(c5c6ccccc6[nH]c5c32)CNC4=O)[C@H](O)[C@H](O)[C@H]1O [formula (XII), N^13-1′-β-L-rhamnosyl-k252c] | -7 |
